- Test system: Escherichia coli TOP10
- test protocol: shrunken log2 fold change of peptide-encoding DNA abundance (4.5 h post-induction vs induction); higher = less antimicrobial activity (less host growth inhibition)
- experimental parameters: time post-induction: 4.5 h; library: site-saturation at positions 5, 18, 19, 20

seq string | shrunken log2 fold change
RRIRMRPPRLPRPRPRPEYHPRP | -0.00495
RRIRNRPPRLPRPRPRPHFIPRP | 0.121
RRIRDRPPRLPRPRPRPCEAPRP | -0.0794
RRIRARPPRLPRPRPRPPMEPRP | 0.587
RRIRSRPPRLPRPRPRPWSIPRP | 0.0338
RRIRPRPPRLPRPRPRPATDPRP | 0.00951
RRIRHRPPRLPRPRPRPPPHPRP | 0.703
RRIRPRPPRLPRPRPRPNSWPRP | -0.299
RRIRVRPPRLPRPRPRPHQYPRP | -0.278
RRIRIRPPRLPRPRPRPVPGPRP | -0.0459
RRIRRRPPRLPRPRPRPEHYPRP | 0.0555
RRIRWRPPRLPRPRPRPWACPRP | 0.0611
RRIRERPPRLPRPRPRPQDTPRP | 2.38
RRIRSRPPRLPRPRPRPDAYPRP | 0.101
RRIRDRPPRLPRPRPRPAHFPRP | 0.358

* * *

- Test system: Escherichia coli TOP10
- test protocol: shrunken log2 fold change of peptide-encoding DNA abundance (4.5 h post-induction vs induction); higher = less antimicrobial activity (less host growth inhibition)
- experimental parameters: time post-induction: 4.5 h; library: site-saturation at positions 5, 18, 19, 20
List of shrunken log2 fold change values.

seq string | shrunken log2 fold change
RRIRSRPPRLPRPRPRPRMNPRP | 0.079
RRIRCRPPRLPRPRPRPAFLPRP | -0.214
RRIRRRPPRLPRPRPRPPPHPRP | 0.968
RRIRMRPPRLPRPRPRPKGQPRP | 1.28
RRIRTRPPRLPRPRPRPFKAPRP | 0.0168
RRIRCRPPRLPRPRPRPPEWPRP | 0.575
RRIRLRPPRLPRPRPRPDNMPRP | -0.519
RRIRKRPPRLPRPRPRPRRDPRP | 0.491
RRIRDRPPRLPRPRPRPGKAPRP | 0.00543
RRIRWRPPRLPRPRPRPGFDPRP | 0.517
RRIRERPPRLPRPRPRPLTAPRP | -0.286
RRIRFRPPRLPRPRPRPYGCPRP | -0.531
RRIRRRPPRLPRPRPRPNGCPRP | 0.00793
RRIRGRPPRLPRPRPRPWFEPRP | -0.111
RRIRKRPPRLPRPRPRPRHVPRP | 0.0906

* * *

- Test system: Escherichia coli TOP10
- test protocol: shrunken log2 fold change of peptide-encoding DNA abundance (4.5 h post-induction vs induction); higher = less antimicrobial activity (less host growth inhibition)
- experimental parameters: time post-induction: 4.5 h; library: site-saturation at positions 5, 18, 19, 20
Everything with shrunken log2 fold change lower than -0.1 is condition not met; everything else, including exactly -0.1, is condition met.

seq string | category
RRIRWRPPRLPRPRPRPPEPPRP | condition met
RRIRHRPPRLPRPRPRPKKRPRP | condition not met
RRIRSRPPRLPRPRPRPQNRPRP | condition not met
RRIRWRPPRLPRPRPRPFYWPRP | condition not met
RRIRMRPPRLPRPRPRPAGTPRP | condition met
RRIRTRPPRLPRPRPRPFDPPRP | condition not met
RRIRCRPPRLPRPRPRPMRRPRP | condition met
RRIRQRPPRLPRPRPRPEYSPRP | condition not met
RRIRIRPPRLPRPRPRPNVKPRP | condition not met
RRIRPRPPRLPRPRPRPTVKPRP | condition met
RRIRARPPRLPRPRPRPRVMPRP | condition met
RRIRMRPPRLPRPRPRPCHHPRP | condition not met
RRIRMRPPRLPRPRPRPDWRPRP | condition met
RRIRYRPPRLPRPRPRPERGPRP | condition met
RRIRCRPPRLPRPRPRPNGDPRP | condition met
RRIRFRPPRLPRPRPRPPWDPRP | condition met
RRIRKRPPRLPRPRPRPTKSPRP | condition met
RRIRERPPRLPRPRPRPSWDPRP | condition not met
RRIRERPPRLPRPRPRPQDEPRP | condition not met
RRIRRRPPRLPRPRPRPRAAPRP | condition met
RRIRLRPPRLPRPRPRPCCPPRP | condition not met
RRIRWRPPRLPRPRPRPSPKPRP | condition met
RRIRIRPPRLPRPRPRPSHYPRP | condition not met
RRIRERPPRLPRPRPRPNTVPRP | condition not met
RRIRLRPPRLPRPRPRPLQGPRP | condition met
RRIRGRPPRLPRPRPRPNSQPRP | condition met
RRIRLRPPRLPRPRPRPKWTPRP | condition met
RRIRPRPPRLPRPRPRPFADPRP | condition met
RRIRTRPPRLPRPRPRPHYHPRP | condition not met
RRIRLRPPRLPRPRPRPTEFPRP | condition met
RRIRWRPPRLPRPRPRPGFAPRP | condition met

* * *

- System: Escherichia coli TOP10
- test protocol: shrunken log2 fold change of peptide-encoding DNA abundance (4.5 h post-induction vs induction); higher = less antimicrobial activity (less host growth inhibition)
- experimental parameters: time post-induction: 4.5 h; library: site-saturation at positions 5, 18, 19, 20
List of shrunken log2 fold change values.

seq string | shrunken log2 fold change
RRIRPRPPRLPRPRPRPNYEPRP | -0.442
RRIRWRPPRLPRPRPRPHMPPRP | -0.768
RRIRYRPPRLPRPRPRPCSSPRP | -0.941
RRIRYRPPRLPRPRPRPSCCPRP | -0.472
RRIRVRPPRLPRPRPRPTGMPRP | 0.0943
RRIRIRPPRLPRPRPRPSNSPRP | -1.13
RRIRFRPPRLPRPRPRPNKNPRP | -0.384
RRIRARPPRLPRPRPRPEKHPRP | 0.0578
RRIRWRPPRLPRPRPRPEVKPRP | 0.21
RRIRARPPRLPRPRPRPRKDPRP | 0.173
RRIRKRPPRLPRPRPRPPQRPRP | 1.08
RRIRRRPPRLPRPRPRPISLPRP | -0.224
RRIRTRPPRLPRPRPRPNQLPRP | -0.101
RRIRYRPPRLPRPRPRPWRYPRP | 0.026
RRIRCRPPRLPRPRPRPFMEPRP | -0.996

* * *

- Test system: Escherichia coli TOP10
- test protocol: shrunken log2 fold change of peptide-encoding DNA abundance (4.5 h post-induction vs induction); higher = less antimicrobial activity (less host growth inhibition)
- experimental parameters: time post-induction: 4.5 h; library: site-saturation at positions 5, 18, 19, 20
Everything with shrunken log2 fold change lower than 0.09 is class 0; everything else, including exactly 0.09, is class 1.

seq string | category
RRIRFRPPRLPRPRPRPNWDPRP | class 0
RRIRERPPRLPRPRPRPVWNPRP | class 0
RRIRDRPPRLPRPRPRPDWRPRP | class 1
RRIRNRPPRLPRPRPRPCPIPRP | class 0
RRIRNRPPRLPRPRPRPIWAPRP | class 0
RRIRCRPPRLPRPRPRPVYEPRP | class 0
RRIRYRPPRLPRPRPRPYHDPRP | class 0
RRIRERPPRLPRPRPRPGKRPRP | class 1
RRIRLRPPRLPRPRPRPIPSPRP | class 0
RRIRMRPPRLPRPRPRPEHPPRP | class 1
RRIRGRPPRLPRPRPRPIYSPRP | class 0
RRIRWRPPRLPRPRPRPCQNPRP | class 0
RRIRNRPPRLPRPRPRPKWHPRP | class 1
RRIRQRPPRLPRPRPRPIVWPRP | class 0

* * *

- Test system: Escherichia coli TOP10;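 further: peptides expressed intracellularly from a pBAD plasmid library in pooled LB shake-flask culture, induced with 0.3% L-arabinose, DNA abundance read by NGS, three biological replicates, DESeq2 with apeglm shrinkage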
- test protocol: shrunken log2 fold change of peptide-encoding DNA abundance (4.5 h post-induction vs induction); higher = less antimicrobial activity (less host growth inhibition)
- experimental parameters: time post-induction: 4.5 h; library: site-saturation at positions 5, 18, 19, 20
Everything with shrunken log2 fold change lower than -0.04 is false; everything else, including exactly -0.04, is true.

seq string | category
RRIRARPPRLPRPRPRPDCMPRP | true
RRIRLRPPRLPRPRPRPIWRPRP | true
RRIRIRPPRLPRPRPRPYPYPRP | true
RRIRPRPPRLPRPRPRPLRYPRP | true
RRIRMRPPRLPRPRPRPKRGPRP | true
RRIRIRPPRLPRPRPRPEWWPRP | false
RRIRRRPPRLPRPRPRPCNHPRP | true
RRIRPRPPRLPRPRPRPMVSPRP | false
RRIRFRPPRLPRPRPRPQTDPRP | false
RRIRMRPPRLPRPRPRPTLGPRP | true
RRIRVRPPRLPRPRPRPRKLPRP | false
RRIRPRPPRLPRPRPRPNNAPRP | false
RRIRNRPPRLPRPRPRPYRQPRP | true
RRIRARPPRLPRPRPRPTCAPRP | true
RRIRTRPPRLPRPRPRPSACPRP | false
